Origin of measurements: paper PMC2700083

Molecular target: T1, MBP-RGS4Δ51N, wild type, biotinylated (UniProt P49799 52-205, biotin (sites not given))
T1 construct: RGS4 from which the amphipathic N-terminal helix has been removed (RGS4Δ51N); Rat RGS4 is surmised from the group's earlier work; His6 lies between MBP and RGS4 (MBP-His6-RGS4Δ51N) with a TEV site; also called wild type RGS4-biotin; biotin-RGS4; source: expressed, purified and labeled as described previously [5]; not shown: MBP, N-terminal, kept
T1 sequence (looked up): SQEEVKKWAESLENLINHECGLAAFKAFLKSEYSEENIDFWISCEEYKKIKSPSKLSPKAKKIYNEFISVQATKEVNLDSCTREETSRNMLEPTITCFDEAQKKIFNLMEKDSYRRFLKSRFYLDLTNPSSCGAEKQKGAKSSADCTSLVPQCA
Test: FCPIA (flow cytometry protein interaction assay, Luminex beads); competition at one peptide concentration (50 μM unless the cell says otherwise); 5 nM wild type RGS4-biotin on avidin beads, 25 nM Gαo-Alexa Fluor 532, with AMF (AlCl3, MgCl2, NaF and GDP)
Settings: both partners purified
Bridges are numbered along the chain shown (N, C = ends).
Each entry below lists one item and its recorded % inhibition of RGS4-Gαo value.
measurementLabel: % inhibition of RGS4-Gαo (%)

INSERT INTO measurements (binder, measurementlabel, experimentalresult) VALUES
  ('Ac-YWCKGLCK-NH2 (disulfide 3-7 (inferred), hit peptide from the focused OBOC library screen; source: synthetic peptide) [Peptide 5ad (Ac-YWCKGLCK-NH2, S-S)]', '% inhibition of RGS4-Gαo', 37),
  ('H-KHCYGFCY-NH2 (disulfide 3-7 (inferred), hit peptide from the focused OBOC library screen; also called hit 6; peptide 14 in Roof et al 2008; source: synthetic peptide) [Peptide 6nd (KHCYGFCY-NH2, S-S)]', '% inhibition of RGS4-Gαo', 23),
  ('Ac-KHCYGFCY-NH2 (disulfide 3-7 (inferred), hit peptide from the focused OBOC library screen; source: synthetic peptide) [Peptide 6ad (Ac-KHCYGFCY-NH2, S-S)]', '% inhibition of RGS4-Gαo', 27);
